Settings: parabacteroides distasonis, 12 h, 2 µM;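 further: drug levels quantified by LC–MS before versus after incubation with the gut bacterium to assess microbial biotransformation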
Outcome Measure: Bacterial Biotransformation

Which Bacterial Biotransformation value is on record for CC(C)(C)NC[C@H](O)COc1nsnc1N1CCOCC1.O=C(O)/C=C\C(=O)O [TIMOLOL MALEATE] ? Compound NOT metabolized

Field entry: CN(CCOc1ccc(CC2SC(=O)NC2=O)cc1)c1ccccn1.O=C(O)/C=C\C(=O)O (centres undefined) [ROSIGLITAZONE MALEATE] Compound NOT metabolized

Try the compound CN1CCN(CC/C=C2/c3ccccc3Sc3ccc(S(=O)(=O)N(C)C)cc32)CC1 Compound metabolized

Follow-up entry: COc1ccc(CCN(C)CCCC(C#N)(c2ccc(OC)c(OC)c2)C(C)C)cc1OC (centres undefined) Compound metabolized
